- experiment: qHTS assay to identify small molecule inhibitors of chordoma cells - UCH-1 (AID 1259355); further: nearly all actives have a fitted effect of over 55% in size
- experimentalParameters: UCH-1 chordoma viability, CellTiter-Glo, 48 h, combination, with auranofin plus four topoisomerase inhibitors; series mostly up to 46.1 µM
Inconclusive results are not listed. Active and inactive are the calls of the source. The call rests on the fitted dose curve; in most records, active means well fitted cell-killing curve with a large enough effect; inconclusive means small, poorly fitted or top-dose-only effect, or effect the other way; inactive means no such curve, though single readings can be large or run the other way.
reportedEndpoint: outcome

{"molecule": "O=C(O)[C@H]1C(=CCO)O[C@H]2CC(=O)N12", "result": "inactive"}
{"molecule": "CCCCCCCCCCCC(=O)OC[C@@H](O)C1OC[C@H](O)[C@H]1O (stereo partly drawn)", "result": "inactive"}
{"molecule": "OC[C@H]1O[C@@H]2O[C@H]3[C@H](O)[C@@H](O)[C@@H](O[C@H]4[C@H](O)[C@@H](O)[C@@H](O[C@H]5[C@H](O)[C@@H](O)[C@@H](O[C@H]6[C@H](O)[C@@H](O)[C@@H](O[C@H]7[C@H](O)[C@@H](O)[C@@H](O[C@H]1[C@H](O)[C@H]2O)O[C@@H]7CO)O[C@@H]6CO)O[C@@H]5CO)O[C@@H]4CO)O[C@@H]3CO", "result": "inactive"}

---

- Test system: N140
- experiment: qHTS profiling for inhibitors of Plasmodium falciparum proliferation (AID 504749); further: nearly all actives have a fitted effect of over 60% in size
- experimentalParameters: P. falciparum in erythrocytes, SYBR Green DNA, 72 h; series mostly up to 28.7 µM
- Experimental: NIH National Institute of Allergy and Infectious Diseases [NIAID] NIH Chemical Genomics Center [NCGC] […] Because mature erythrocytes lack DNA, only Plasmodium-derived DNA is detected. NCGC Assay Protocol Summary: The SYBR Green viability assay was adapted from a method described previously (Plouffe et al., 2008). […] The following morning, fluorescence intensity at 485(14) nm excitation and 535(25) nm emission wavelengths was measured on an EnVision (Perkin Elmer) plate reader. […]
Inconclusive results are not listed. Activity calls are given as the source filed them. The call rests on the fitted dose curve; in most records, active means well fitted inhibition curve with a large enough effect; inconclusive means small, poorly fitted or top-dose-only effect; inactive means flat fitted curve, though single readings scatter.
reportedEndpoint: outcome

{"compound": "Cc1ncc(C[n+]2csc(CCO)c2C)c(N)n1", "reportedEndpoint": "outcome", "result": "inactive"}
{"compound": "NCCN", "reportedEndpoint": "outcome", "result": "inactive"}
{"compound": "NC(=S)NS(=O)(=O)c1ccc(N)cc1", "reportedEndpoint": "outcome", "result": "inactive"}
{"compound": "C[Si](C)(C)O[Si](C)(C)C", "reportedEndpoint": "outcome", "result": "inactive"}
{"compound": "CC(C)CCCCCCc1ccc(O)cc1", "reportedEndpoint": "outcome", "result": "inactive"}
{"compound": "Cc1cccc(C)c1NC(=O)NC1=CCCN1C", "reportedEndpoint": "outcome", "result": "inactive"}
{"compound": "CC(C)(C)c1ccc2c(S(=O)(=O)O)c(C(C)(C)C)ccc2c1", "reportedEndpoint": "outcome", "result": "inactive"}
{"compound": "CC(C)CCCC(C)NC(C)C (configuration not stated)", "reportedEndpoint": "outcome", "result": "inactive"}
{"compound": "O=C(O[C@H]1CN2CCC1CC2)N1CCc2ccccc2[C@@H]1c1ccccc1", "reportedEndpoint": "outcome", "result": "inactive"}
{"compound": "CC(/C=C/C=C(\\C)C(=O)O[C@@H]1O[C@H](CO[C@@H]2O[C@H](CO)[C@@H](O)[C@H](O)[C@H]2O)[C@@H](O)[C@H](O)[C@H]1O)=C\\C=C\\C=C(C)\\C=C\\C=C(/C)C(=O)O[C@@H]1O[C@H](CO[C@@H]2O[C@H](CO)[C@@H](O)[C@H](O)[C@H]2O)[C@@H](O)[C@H](O)[C@H]1O", "reportedEndpoint": "outcome", "result": "inactive"}
{"compound": "O=C(OCc1ccccc1)c1cccnc1", "reportedEndpoint": "outcome", "result": "inactive"}
{"compound": "CC1CC(OC(=O)C(O)c2ccccc2)CC(C)(C)C1 (configuration not stated)", "reportedEndpoint": "outcome", "result": "inactive"}

Data origin, for the record: PubChem BioAssay (NCATS)
